What inhibition at 120 µM (stock) was measured for each of the following?
Target: PLC-γ1 (Bos taurus)
Construct: A sample (PLC-γ1) was prepared from bovine thymus according to the method of Y. Homma et al; from tissue; host or cells: bovine thymus
Experiment: PLC-inhibiting activity (release of [3H]inositol phosphate from [3H]PIP2)
Format: biochemical, bovine
Details: Concentration 120 μM (aqueous solution of test peptide); PI-PLC-γ1, 37° C., 10 minutes; read-out: Inhibition rate (%)
Procedure: A sample (PLC-γ1) was prepared from bovine thymus according to the method of Y. Homma et al. described in Biochemical Journal [(Biochem. J.), 269, 13 (1990)]. A solution having the composition listed in Table 1 below was prepared in advance on the ice and the reaction was begun with heating to 37° C. […] Two-phase distribution was carried out by centrifugation (2000×g, 3 minutes), and the amount of ^3 H contained in 0.7 ml of the supernatant was measured with scintillation counter. […]
Peptide text beside a SMILES is read from it. * marks the point of attachment. Benzoyl(2,5-(OH)2) = O=C(c1cc(O)ccc1O)*; Cyclohexylacetyl = O=C(CC1CCCCC1)*; Cyclopentylacetyl = O=C(CC1CCCC1)*; Cyclopropanecarbonyl = O=C(C1CC1)*; Octanoyl = CCCCCCCC(=O)*

For the compound shown here, CSCC[C@H](NC(=O)[C@H](CCCCN)NC(=O)[C@H](CCCNC(=N)N)NC(=O)[C@H](Cc1ccc(O)cc1)NC(=O)[C@H](CC(C)C)NC(=O)CC1CCCC1)C(=O)N[C@@H](CCCNC(=N)N)C(=O)N[C@@H](CC(C)C)C(=O)N[C@@H](CCCNC(=N)N)C(=O)N[C@@H](Cc1ccc(O)cc1)C(=O)N1CCC[C@H]1C(=O)N[C@H](C(N)=O)C(C)C [(I-17)] (Cyclopentylacetyl-LYRKMRLRYPV-NH2) , give the reported inhibition at 120 µM (stock).
53%

Similarly, CSCC[C@H](NC(=O)[C@H](CCCCN)NC(=O)[C@H](CCCNC(=N)N)NC(=O)[C@H](Cc1ccc(O)cc1)NC(=O)[C@H](CC(C)C)NC(=O)c1cc(O)ccc1O)C(=O)N[C@@H](CCCNC(=N)N)C(=O)N[C@@H](CC(C)C)C(=O)N[C@@H](CCCNC(=N)N)C(=O)N[C@@H](Cc1ccc(O)cc1)C(=O)N1CCC[C@H]1C(=O)N[C@H](C(N)=O)C(C)C [(I-15)] ({Benzoyl(2,5-(OH)2)}-LYRKMRLRYPV-NH2) ?
41%

Next compound: CCCCCCCC(=O)N[C@@H](CC(C)C)C(=O)N[C@@H](Cc1ccc(O)cc1)C(=O)N[C@@H](CCCNC(=N)N)C(=O)N[C@@H](CCCCN)C(=O)N[C@@H](CCSC)C(=O)N[C@@H](CCCNC(=N)N)C(=O)N[C@@H](CC(C)C)C(=O)N[C@@H](CCCNC(=N)N)C(=O)N[C@@H](Cc1ccc(O)cc1)C(=O)N1CCC[C@H]1C(=O)N[C@H](C(N)=O)C(C)C [(I-21)] (Octanoyl-LYRKMRLRYPV-NH2)
86%

What would you report for CSCC[C@H](NC(=O)[C@H](CCCCN)NC(=O)[C@H](CCCNC(=N)N)NC(=O)[C@H](Cc1ccc(O)cc1)NC(=O)[C@H](CC(C)C)NC(=O)CC1CCCCC1)C(=O)N[C@@H](CCCNC(=N)N)C(=O)N[C@@H](CC(C)C)C(=O)N[C@@H](CCCNC(=N)N)C(=O)N[C@@H](Cc1ccc(O)cc1)C(=O)N1CCC[C@H]1C(=O)N[C@H](C(N)=O)C(C)C [(I-25)] (Cyclohexylacetyl-LYRKMRLRYPV-NH2) ?
50%

Okay, now this compound:
Report inhibition at 120 µM (stock) for CSCC[C@H](NC(=O)[C@H](CCCCN)NC(=O)[C@H](CCCNC(=N)N)NC(=O)[C@H](Cc1ccc(O)cc1)NC(=O)[C@H](CC(C)C)NC(=O)C1CC1)C(=O)N[C@@H](CCCNC(=N)N)C(=O)N[C@@H](CC(C)C)C(=O)N[C@@H](CCCNC(=N)N)C(=O)N[C@@H](Cc1ccc(O)cc1)C(=O)N1CCC[C@H]1C(=O)N[C@H](C(N)=O)C(C)C [(I-24)] (Cyclopropanecarbonyl-LYRKMRLRYPV-NH2) please.
55%

* * *

molecular target: PLC-γ1 (Bos taurus, UniProt P08487); construct: A sample (PLC-γ1) was prepared from bovine thymus according to the method of Y. Homma et al; from tissue; host or cells: bovine thymus; test: PLC-inhibiting activity (release of [3H]inositol phosphate from [3H]PIP2); format: biochemical, bovine; conditions: Concentration 120 μM (aqueous solution of test peptide); PI-PLC-γ1, 37° C., 10 minutes; read-out: Inhibition rate (%)
Sequence (P08487 whole entry): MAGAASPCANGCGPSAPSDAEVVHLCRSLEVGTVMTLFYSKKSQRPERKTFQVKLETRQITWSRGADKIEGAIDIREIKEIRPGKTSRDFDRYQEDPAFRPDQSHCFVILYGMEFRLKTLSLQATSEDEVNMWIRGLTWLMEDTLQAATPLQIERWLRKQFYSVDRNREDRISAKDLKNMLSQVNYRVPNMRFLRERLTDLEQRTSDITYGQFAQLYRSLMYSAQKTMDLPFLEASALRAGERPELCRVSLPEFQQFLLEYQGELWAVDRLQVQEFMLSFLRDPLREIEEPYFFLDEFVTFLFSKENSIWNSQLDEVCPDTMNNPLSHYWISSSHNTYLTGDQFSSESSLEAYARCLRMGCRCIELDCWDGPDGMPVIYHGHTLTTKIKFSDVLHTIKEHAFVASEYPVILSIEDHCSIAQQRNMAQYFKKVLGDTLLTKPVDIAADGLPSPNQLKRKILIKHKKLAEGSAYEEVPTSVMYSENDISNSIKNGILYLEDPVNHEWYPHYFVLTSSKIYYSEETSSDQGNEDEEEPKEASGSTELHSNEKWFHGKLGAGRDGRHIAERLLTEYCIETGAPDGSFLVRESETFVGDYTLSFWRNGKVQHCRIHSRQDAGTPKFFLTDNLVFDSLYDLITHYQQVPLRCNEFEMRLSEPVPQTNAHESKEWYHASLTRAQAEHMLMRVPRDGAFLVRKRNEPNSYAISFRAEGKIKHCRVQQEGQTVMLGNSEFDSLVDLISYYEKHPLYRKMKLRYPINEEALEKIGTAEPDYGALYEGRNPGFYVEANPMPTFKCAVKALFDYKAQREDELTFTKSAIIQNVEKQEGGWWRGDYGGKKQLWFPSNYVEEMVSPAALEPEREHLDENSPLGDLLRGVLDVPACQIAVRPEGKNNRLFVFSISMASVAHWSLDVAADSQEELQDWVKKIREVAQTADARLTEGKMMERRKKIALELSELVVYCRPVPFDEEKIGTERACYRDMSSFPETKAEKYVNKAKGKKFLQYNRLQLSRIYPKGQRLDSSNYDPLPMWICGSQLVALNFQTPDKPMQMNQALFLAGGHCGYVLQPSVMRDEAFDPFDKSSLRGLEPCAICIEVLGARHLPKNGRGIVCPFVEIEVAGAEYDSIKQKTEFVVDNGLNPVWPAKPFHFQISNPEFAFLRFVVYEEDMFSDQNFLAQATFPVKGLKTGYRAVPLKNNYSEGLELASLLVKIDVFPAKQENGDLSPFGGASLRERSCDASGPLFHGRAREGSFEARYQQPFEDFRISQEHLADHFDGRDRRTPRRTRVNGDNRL
Peptide text beside a SMILES is read from it. * marks the point of attachment. Propanoyl(3-cHex) = O=C(CCC1CCCCC1)*; Propanoyl(3-cPent) = O=C(CCC1CCCC1)*; Nonanoyl = CCCCCCCCC(=O)*; X1 = O=C(c1ccc(O)cc1O)*; X2 = O=C(c1ccc(=O)oc1)*
I'd appreciate it if you could supply inhibition at 120 µM (stock) values for the items below.
Please make sure the unit comes right after the number.

Use these answered entries as a reference point.
Look up inhibition at 120 µM (stock): CSCC[C@H](NC(=O)[C@H](CCCCN)NC(=O)[C@H](CCCNC(=N)N)NC(=O)[C@H](Cc1ccc(O)cc1)NC(=O)[C@H](CC(C)C)NC(=O)CCC1CCCCC1)C(=O)N[C@@H](CCCNC(=N)N)C(=O)N[C@@H](CC(C)C)C(=O)N[C@@H](CCCNC(=N)N)C(=O)N[C@@H](Cc1ccc(O)cc1)C(=O)N1CCC[C@H]1C(=O)N[C@H](C(N)=O)C(C)C [(I-16)] ({Propanoyl(3-cHex)}-LYRKMRLRYPV-NH2)
51%

How about CSCC[C@H](NC(=O)[C@H](CCCCN)NC(=O)[C@H](CCCNC(=N)N)NC(=O)[C@H](Cc1ccc(O)cc1)NC(=O)[C@H](CC(C)C)NC(=O)c1ccc(O)cc1O)C(=O)N[C@@H](CCCNC(=N)N)C(=O)N[C@@H](CC(C)C)C(=O)N[C@@H](CCCNC(=N)N)C(=O)N[C@@H](Cc1ccc(O)cc1)C(=O)N1CCC[C@H]1C(=O)N[C@H](C(N)=O)C(C)C [(I-14)] (X1-LYRKMRLRYPV-NH2) ?
45%

And CCCCCCCCC(=O)N[C@@H](CC(C)C)C(=O)N[C@@H](Cc1ccc(O)cc1)C(=O)N[C@@H](CCCNC(=N)N)C(=O)N[C@@H](CCCCN)C(=O)N[C@@H](CCSC)C(=O)N[C@@H](CCCNC(=N)N)C(=O)N[C@@H](CC(C)C)C(=O)N[C@@H](CCCNC(=N)N)C(=O)N[C@@H](Cc1ccc(O)cc1)C(=O)N1CCC[C@H]1C(=O)N[C@H](C(N)=O)C(C)C [(I-28)] (Nonanoyl-LYRKMRLRYPV-NH2) ?
78%

Same question for CSCC[C@H](NC(=O)[C@H](CCCCN)NC(=O)[C@H](CCCNC(=N)N)NC(=O)[C@H](Cc1ccc(O)cc1)NC(=O)[C@H](CC(C)C)NC(=O)CCC1CCCC1)C(=O)N[C@@H](CCCNC(=N)N)C(=O)N[C@@H](CC(C)C)C(=O)N[C@@H](CCCNC(=N)N)C(=O)N[C@@H](Cc1ccc(O)cc1)C(=O)N1CCC[C@H]1C(=O)N[C@H](C(N)=O)C(C)C [(I-23)] ({Propanoyl(3-cPent)}-LYRKMRLRYPV-NH2) please.
53%

Continue with the next compound.
Recorded inhibition at 120 µM (stock) of CSCC[C@H](NC(=O)[C@H](CCCCN)NC(=O)[C@H](CCCNC(=N)N)NC(=O)[C@H](Cc1ccc(O)cc1)NC(=O)[C@H](CC(C)C)NC(=O)c1ccc(=O)oc1)C(=O)N[C@@H](CCCNC(=N)N)C(=O)N[C@@H](CC(C)C)C(=O)N[C@@H](CCCNC(=N)N)C(=O)N[C@@H](Cc1ccc(O)cc1)C(=O)N1CCC[C@H]1C(=O)N[C@H](C(N)=O)C(C)C [(I-12)] (X2-LYRKMRLRYPV-NH2) , please.
40%
